Kindly supply the reported pIC50 values for the records listed here.
test-target: UniProt P17706
Sequence (P17706 whole entry): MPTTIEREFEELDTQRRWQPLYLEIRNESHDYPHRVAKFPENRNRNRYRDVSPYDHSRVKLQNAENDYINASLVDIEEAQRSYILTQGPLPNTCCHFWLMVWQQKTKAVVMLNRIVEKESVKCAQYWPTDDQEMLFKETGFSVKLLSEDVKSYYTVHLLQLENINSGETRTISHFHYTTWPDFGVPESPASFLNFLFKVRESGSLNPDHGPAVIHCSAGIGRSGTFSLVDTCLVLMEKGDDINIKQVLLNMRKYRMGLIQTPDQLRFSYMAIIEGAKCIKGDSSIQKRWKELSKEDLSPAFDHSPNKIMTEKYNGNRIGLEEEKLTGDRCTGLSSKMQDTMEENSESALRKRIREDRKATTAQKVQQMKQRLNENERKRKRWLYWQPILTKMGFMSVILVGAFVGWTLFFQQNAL
API: returns pIC50 as number; meaning -log10 of concentration in mol/L.

Qu. // pIC50 lookup, key: COc1cc(/C=C2\S/C(=N\c3ccccc3)N(Cc3ccc(C(=O)O)cc3)C2=O)ccc1OCCc1ccccc1
Ans. 5.47

Qu. What would you report for O=C(O)c1ccc(CN2C(=O)S/C(=C\c3cccc(OCCc4ccccc4)c3)C2=O)cc1 ?
Ans. 5.14

Qu. Field entry: COc1ccc(/C=C2\SC(=O)N(Cc3ccc(C(=O)O)cc3)C2=O)cc1OCc1ccccc1
Ans. 4.90

Qu. Next entry: COc1ccc(/C=C2\S/C(=N\c3ccccc3)N(Cc3ccc(C(=O)O)cc3)C2=O)cc1OCc1ccccc1
Ans. 5.40

Qu. Let us now turn to COc1cc(/C=C2\SC(=O)N(Cc3ccc(C(=O)O)cc3)C2=O)ccc1OCCc1ccccc1
Ans. 5.46

Qu. Record: O=C(O)c1ccc(CN2C(=O)/C(=C/c3cccc(OCCc4ccccc4)c3)S/C2=N\c2ccccc2)cc1
Ans. 5.72

###

test-target: UniProtKB P24666
Sequence (P24666 whole entry): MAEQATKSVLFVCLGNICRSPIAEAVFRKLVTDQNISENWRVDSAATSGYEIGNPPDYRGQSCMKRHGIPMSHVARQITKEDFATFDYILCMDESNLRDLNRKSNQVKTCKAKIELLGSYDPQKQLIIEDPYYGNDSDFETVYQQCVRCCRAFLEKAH
assay-text: Inhibition of human recombinant LMW-PTP IF1 expressed in Escherichia coli TB1 using p-nitrophenylphosphate as substrate
property-measured: pIC50
Please treat pIC50 as minus the base-10 logarithm of the molar concentration.

Qu. Entry COc1ccc(/C=C2\S/C(=N\c3ccccc3)N(Cc3ccc(C(=O)O)cc3)C2=O)cc1OCCc1ccccc1 : reported pIC50 = ?
Ans. 4.76

Qu. COc1cc(/C=C2\SC(=O)N(Cc3ccc(C(=O)O)cc3)C2=O)ccc1OCCc1ccccc1 , same question.
Ans. 4.97

Qu. Also need O=C(O)c1ccc(CN2C(=O)/C(=C/c3ccc(OCc4ccccc4)c(F)c3)S/C2=N\c2ccccc2)cc1 , thanks.
Ans. 5.48

Qu. What about COc1ccc(/C=C2\SC(=O)N(Cc3ccc(C(=O)O)cc3)C2=O)cc1OCc1ccccc1 ?
Ans. 4.65

Qu. Quick one: O=C(O)c1ccc(CN2C(=O)/C(=C/c3cccc(OCCc4ccccc4)c3)S/C2=N\c2ccccc2)cc1
Ans. 4.96

Qu. And for O=C(O)c1ccc(CN2C(=O)S/C(=C\c3ccc(OCc4ccccc4)c(F)c3)C2=O)cc1 ?
Ans. 4.46

Qu. Record: COc1cc(/C=C2\S/C(=N\c3ccccc3)N(Cc3ccc(C(=O)O)cc3)C2=O)ccc1OCCc1ccccc1
Ans. 4.97

Hey, just so you know, these numbers are from ChEMBL document CHEMBL3098122.
